Tested on: DU-145 prostate
Assay: NCI tumour cell line growth inhibition, 48 h
Please go through the items and note down their TGI.

What does the data say about its TGI? Entry: `CCOC(=O)/C=C/C(Br)=C(Br)/C=C/C(=O)OCC` 29.1 µM

What does the data say about its TGI? Entry: `CCN(CC)Cc1cc(Nc2c3ccc(Cl)cc3nc3c(C)cccc23)ccc1O` 6.99 µM

What does the data say about its TGI? Entry: `c1ccc2c(Nc3ccc4c(c3)OCO4)c3ccoc3nc2c1` 31.2 µM

What does the data say about its TGI? Entry: `O=C(O)CNCc1c2ccccc2nc2ccccc12` > 100 µM

What does the data say about its TGI? Entry: `COc1ccc2c(-c3csc(-c4c[nH]c5ccccc45)n3)c[nH]c2c1` > 44.8 µM

What does the data say about its TGI? Entry: `COC(=O)C12CC(NC(=O)c3csc([C@@H](C[C@H](C(C)C)N(C)C(=O)[C@@H](NC(=O)[C@H]4CCCCN4C)C(C)C)OC(C)=O)n3)(C1)C2` > 33.3 µM

What does the data say about its TGI? Entry: `Cn1ccnc1C(=O)/C=C/c1ccc(CC(=O)Nc2cc(F)c(F)c(F)c2)cc1` 4.87 µM

What does the data say about its TGI? Entry: `CN1C(=O)[C@](C)(Cc2ccc(F)cc2)N(C(=O)OC(C)(C)C)[C@@H]1C(C)(C)C` > 100 µM

What does the data say about its TGI? Entry: `CO/C=C(/C(=O)OC)c1ccccc1[C@H]1C[C@@H]1c1ccccc1` > 100 µM

What does the data say about its TGI? Entry: O=C(c1nc2ccccc2[nH]1)C1C(c2cccc([N+](=O)[O-])c2)C2CC3CCCCC3N2[C@@]12C(=O)Nc1cc(Cl)ccc12 (stereo not given in full) 3.26 µM

What does the data say about its TGI? Entry: `CCn1c(-c2nonc2N)nc2c(C#CC(C)(C)O)ncc(OCC3CCNCC3)c21` > 25 µM

What does the data say about its TGI? Entry: `Clc1cc(-c2csc(Cl)c2)cs1` > 100 µM

What does the data say about its TGI? Entry: `COc1ccc2c(c1)/C(=N/OC(C)=O)c1c-2c(Nc2ccc(/C(C)=N/OC(C)=O)cc2)nc2ccccc12` > 100 µM

What does the data say about its TGI? Entry: `Cc1cc(S(=O)(=O)Nc2n[nH]c(N)n2)c(S)cc1Cl` > 10 µM

What does the data say about its TGI? Entry: `CC(=O)c1nc(C#N)c(N)o1` > 100 µM

What does the data say about its TGI? Entry: `Cc1cc(C)c(N)c(CO)c1` > 100 µM

What does the data say about its TGI? Entry: CC1=CCC(=O)[C@]2(C)C(CC(=O)O)[C@]3(C)C4=C(C)C(c5ccoc5)C[C@@H]4O[C@@H]3[C@H](O)[C@@H]12 (stereo not given in full) > 100 µM

What does the data say about its TGI? Entry: `Cn1cc(C2=C(c3cccc(Cl)c3)C(=O)NC2=O)c2ccccc21` > 25 µM

What does the data say about its TGI? Entry: C=C(C)[C@@H]1CC[C@@H]2C(=CC[C@]3(C)C([C@H](C)CC/C=C(/C)C(=O)O)CC[C@@]23C)[C@@]1(C)CCC(=O)O (stereo not given in full) 60.5 µM

What does the data say about its TGI? Entry: `CC(=O)O[C@H]1Cc2c([nH]c3ccccc23)[C@@H](c2ccc(Cl)cc2)N1C(=O)CCNC(C)(C)C` 8.45 µM
